Could you please report measured pEC50 for the items listed next?
System: Tyk2-pSTAT4 (IL-12 induced pSTAT4)
ASSAY_PROCEDURE: IL-12 induced pSTAT4 in human PBMC
Assay type: cell-based
ASSAY_CONTEXT: Homo sapiens, PBMC, 0.5 h, 1.7 ng/mL IL-12, 30 minutes
pEC50: −log10 of the molar value.

See these solved cases before continuing.
| MOLECULE | pEC50 |
| --- | --- |
| CC(C)n1ccc(-c2cc(-c3c(F)cccc3C#N)nc3c2C(=O)NC3)n1 [I-57] | 5.70 to 7.00 |
| N#Cc1cccc(F)c1-c1cc(-n2ccc(N3CCCC(N)(C(F)(F)F)C3)n2)c2c(n1)CNC2=O (stereo not shown) [I-84] | 7.00 to 7.52 |
| CC1(C)C(O)CCN1c1ccn(-c2cc(-c3c(F)cccc3C#N)nc3c2C(=O)NC3)n1 (stereo not shown) [I-187] | 5.70 to 7.00 |
| CN1CCO[C@@H]2CN(c3ccn(-c4cc(-c5c(F)cccc5C#N)nc5c4C(=O)NC5)n3)C[C@@H]21 [I-225] | 5.70 to 7.00 |
| CC1O[C@H]2CN(c3ccn(-c4cc(-c5c(F)cccc5C#N)nc5c4C(=O)NC5)n3)C[C@H]2O1 (stereo partly shown) [I-161] | 5.70 to 7.00 |
| N#Cc1cccc(F)c1-c1cc(-n2ccc(N3CC[C@@H](O)[C@@H](O)C3)n2)c2c(n1)CNC2=O [I-105] | 5.70 to 7.00 |
| C[C@H]1CC[C@H](O)CN1c1ccn(-c2cc(-c3c(F)cccc3C#N)nc3c2C(=O)NC3)n1 [I-112] | 5.70 to 7.00 |
| N#Cc1cccc(F)c1-c1cc(-n2ccc(N3CCC[C@H](N4CCOCC4)C3)n2)c2c(n1)CNC2=O [I-157] | 5.70 to 7.00 |
| [2H]C1([2H])N(c2ccn(-c3cc(-c4c(F)cccc4C#N)nc4c3C(=O)NC4)n2)C([2H])([2H])[C@@]([2H])(O)C1([2H])[2H] [I-209] | 5.70 to 7.00 |
| N#Cc1cccc(F)c1-c1cc(-n2cc3c(n2)CCCN3)c2c(n1)CNC2=O [I-77] | 7.00 to 7.52 |

List the reported pEC50 of each molecule below.
1. N#Cc1cccc(F)c1-c1cc(-n2ccc([C@@H]3CCCO3)n2)c2c(n1)CNC2=O [I-104]
2. N#Cc1cccc(F)c1-c1cc(-n2ccc(N3CCCC(O)C3)n2)c2c(n1)CNC2=O (stereo not shown) [I-65]
3. N#Cc1cccc(F)c1-c1cc(-n2ccc(N3CCC(F)C(O)C3)n2)c2c(n1)CNC2=O (stereo not shown) [I-160]
4. C[C@]1(O)CCN(c2ccn(-c3cc(-c4c(F)cccc4C#N)nc4c3C(=O)NC4)n2)C1 [I-93]

-- reply
1: 5.70 to 7.00; 2: 7.00 to 7.52; 3: 7.00 to 7.52; 4: 7.00 to 7.52

List the reported pEC50 of each molecule below.
1. N#Cc1cccc(F)c1-c1cc(-n2ccc(N3CC[C@@](O)(C(=O)N4CCCC4)C3)n2)c2c(n1)CNC2=O [I-197]
2. CC(C)n1cc(-c2cc(-c3c(F)cccc3C#N)nc3c2C(=O)NC3)cn1 [I-61]

-- reply
5.70 to 7.00
5.70 to 7.00
